testedSystem: ERα in MCF7 cells (Homo sapiens (Human), UniProt P03372)
Sequence (P03372 whole entry): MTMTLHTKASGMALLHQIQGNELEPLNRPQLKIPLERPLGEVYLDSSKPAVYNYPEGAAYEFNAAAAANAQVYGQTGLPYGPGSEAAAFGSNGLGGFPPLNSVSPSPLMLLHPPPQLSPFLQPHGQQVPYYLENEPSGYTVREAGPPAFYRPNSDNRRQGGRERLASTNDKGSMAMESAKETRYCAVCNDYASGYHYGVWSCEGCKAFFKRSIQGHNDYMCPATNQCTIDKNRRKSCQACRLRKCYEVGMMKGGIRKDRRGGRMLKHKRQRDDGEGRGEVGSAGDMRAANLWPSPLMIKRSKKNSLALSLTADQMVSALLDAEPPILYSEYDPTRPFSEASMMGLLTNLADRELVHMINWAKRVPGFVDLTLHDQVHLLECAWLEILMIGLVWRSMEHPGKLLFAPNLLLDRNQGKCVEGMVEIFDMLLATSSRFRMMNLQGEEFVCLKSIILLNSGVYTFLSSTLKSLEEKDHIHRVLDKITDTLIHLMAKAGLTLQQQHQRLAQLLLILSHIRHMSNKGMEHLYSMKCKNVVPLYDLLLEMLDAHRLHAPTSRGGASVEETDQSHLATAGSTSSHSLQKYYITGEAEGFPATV
runDescription: Test C: estrogen receptor degradation activity, ERα in cell western assay in MCF7 cells
Assay type: cell-based
testParameters: at 3 μM, 4 hours, relative to fulvestrant
Label Condition met when % Degradation at 3 μM is strictly below 90%; otherwise label Condition not met.

Here's an entry: `Oc1ccc2c(c1F)CCCC(c1ccc(OC(F)F)c(F)c1)=C2c1ccc(O[C@H]2CCN(CCCF)C2)nc1` . Is its % Degradation at 3 μM below 90%? Condition met

Here's an entry: `O=C(O)c1ccc2c(c1)CCCC(c1ccc(Cl)cc1Cl)=C2c1ccc(O[C@H]2CCN(CCCF)C2)nc1` . Is its % Degradation at 3 μM below 90%? Condition not met

Here's an entry: `CCOc1ccc(C2=C(c3ccc(O[C@H]4CCN(CCCF)C4)cc3)c3ccc(O)cc3SCC2)c(C)c1` . Is its % Degradation at 3 μM below 90%? Condition met

Here's an entry: `CCOc1cc(Cl)ccc1C1=C(c2ccc(O[C@H]3CCN(CCCF)C3)cc2)c2ccc(O)cc2SC1` . Is its % Degradation at 3 μM below 90%? Condition not met
